Origin of the recorded values: patent US20030232860A1

Where a name gives a salt, the structure may show the parent alone.
Recorded measurements of melting point, one per entry

Past entries and their recorded results:
COc1nc(N)c(C#N)c(-c2ccc3nc[nH]c3c2)c1C#N (as salt: HCl)
299 to 300 °C
COc1nc(NC(=O)C(F)(F)F)c(C#N)c(-c2ccccc2F)c1C#N
142 to 145 °C
N#Cc1c(N)nc(OCc2cccnc2)c(C#N)c1-c1ccccc1 (as salt: HCl) (hydrate or solvate)
174 to 175 °C
COc1nc(N)c(C#N)c(-c2ccc3cc[nH]c3c2)c1C#N (as salt: salt) (hydrate or solvate)
270 to 272 °C
COc1nc(N)c(C#N)c(C2CCCCO2)c1C#N (stereo not shown)
134 to 135 °C

Okay, next one:
Short answer for N#Cc1c(N)nc(Oc2ccccc2CN)c(C#N)c1-c1ccccc1 (as salt: HCl) : melting point was > 300 °C

---

Structures can show the parent of a compound that is named as a salt.
observable: melting point

Here is how some compounds turned out for melting point.
N#Cc1c(N)nc(OCCOC(=O)[C@@H](N)Cc2ccccc2)c(C#N)c1-c1ccccc1 (as salt: hydrochloride) (hydrate or solvate) [Example 15, monohydrochloride monohydrate]
161 to 162 °C
COc1nc(NC(=O)C(C)(C)C)c(C#N)c(-c2ccccc2F)c1C#N
162 to 164 °C
COc1nc(N)c(C#N)c(-c2cccc(CO)c2)c1C#N
218.5 to 219.5 °C
N#Cc1cc(C#N)c(Oc2ccccc2)nc1N
235 to 237 °C
CSc1nc(N)c(C#N)c(-c2cccc(N)c2)c1C#N.Cl
277 to 278 °C

Record COc1nc(NC(=O)C(C)C)c(C#N)c(-c2ccccc2F)c1C#N . Reported melting point: 193 to 194 °C

Lab book: melting point of COc1nc(N)c(C#N)c(-c2cc[nH]c2)c1C#N noted as 235 to 237 °C

Measured melting point, N#Cc1c(N)nc(SCc2ccccc2)c(C#N)c1Cc1ccccc1 : 188 to 189 °C

---

Listed next: entries and their corresponding melting point.

Observe how each entry below is paired with its result.
CCCCCC(=O)Nc1nc(OC)c(C#N)c(-c2ccccc2F)c1C#N
139 to 141 °C
COc1nc(N)c(C#N)c(-c2ccccc2)c1C#N
251 to 252 °C
COc1nc(N(C(=O)Oc2ccccc2)C(=O)Oc2ccccc2)c(C#N)c(-c2ccccc2F)c1C#N
156 to 158 °C
N#Cc1c(N)nc(OCc2cccnc2)c(C#N)c1Cc1ccccc1
204 to 205 °C
N#Cc1c(N)nc(Br)c(C#N)c1-c1ccccc1
> 300 °C

molecule CSc1nc(N)c(C#N)c(-c2ccco2)c1C#N , melting point observed: 229 to 230 °C

For record COc1nc(N)c(C#N)c(Cc2ccccc2)c1C#N the listed melting point is 215 to 216 °C

Noted for N#Cc1c(N)nc(OCC(F)F)c(C#N)c1-c1ccccc1F : its melting point reads 219 to 220 °C

The reported value for COc1nc(NC(=O)COC(C)=O)c(C#N)c(-c2ccccc2F)c1C#N in terms of melting point is 151 to 153 °C

Measured melting point, COc1nc(NC(=O)N(C)C)c(C#N)c(-c2ccccc2F)c1C#N : 82 to 86 °C

# melting point (molecule: N#Cc1c(N)nc(SCc2ccccc2)c(C#N)c1-c1ccccc1 ) is 212 to 213 °C
